Molecular target: Thyrotropin receptor (Homo sapiens) (UniProt P16473)
Sequence (P16473 whole entry, looked up): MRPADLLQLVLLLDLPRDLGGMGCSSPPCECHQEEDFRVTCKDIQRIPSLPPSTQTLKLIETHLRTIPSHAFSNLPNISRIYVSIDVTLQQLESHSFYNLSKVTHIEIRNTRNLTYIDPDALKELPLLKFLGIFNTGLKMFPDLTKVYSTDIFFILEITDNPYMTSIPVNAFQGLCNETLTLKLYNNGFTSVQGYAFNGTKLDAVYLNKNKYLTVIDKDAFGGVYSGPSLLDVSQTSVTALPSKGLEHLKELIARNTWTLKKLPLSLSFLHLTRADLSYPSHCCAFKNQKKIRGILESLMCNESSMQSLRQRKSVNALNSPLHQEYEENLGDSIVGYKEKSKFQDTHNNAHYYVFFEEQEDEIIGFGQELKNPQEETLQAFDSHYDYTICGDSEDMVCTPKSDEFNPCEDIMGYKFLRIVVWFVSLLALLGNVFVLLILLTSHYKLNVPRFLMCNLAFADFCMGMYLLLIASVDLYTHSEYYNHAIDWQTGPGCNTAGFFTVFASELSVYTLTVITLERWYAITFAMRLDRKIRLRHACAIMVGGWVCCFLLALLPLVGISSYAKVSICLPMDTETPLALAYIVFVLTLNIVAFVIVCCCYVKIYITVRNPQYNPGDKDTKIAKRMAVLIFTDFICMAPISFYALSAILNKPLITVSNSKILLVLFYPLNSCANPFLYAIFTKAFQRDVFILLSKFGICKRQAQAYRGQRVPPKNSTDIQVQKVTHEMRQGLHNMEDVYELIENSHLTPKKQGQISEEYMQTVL
Assay: qHTS for antagonists of the Thyroid Stimulation Hormone Receptor: Hit Validation in Primary Screen; note: nearly all actives have a fitted effect of over 80% in size
Conditions: TSHR-expressing cells, cAMP antagonist mode; series mostly up to 58 µM
Out of some 1,300 compounds screened, about 380 (29%) were called active. Not shown: some 37% with an inconclusive outcome. Calls come from the whole dose curve; as a rule, active = well fitted inhibition curve with a large enough effect; inconclusive = small, poorly fitted or top-dose-only effect; inactive = flat fitted curve, though single readings scatter. This is one part of the list.
Give one outcome, nothing more. List: active, inactive

compound	experimental_system	discrete_label
O=C(c1ccc2c(c1)N(Cc1ccccc1)C(=O)c1ccccc1S2)N1CCCC1	Thyrotropin receptor (Homo sapiens) (UniProt P16473)	inactive
Cc1ccccc1NC(=O)C1(C)Cc2ccccc2C(=O)O1 (configuration not stated)	Thyrotropin receptor (Homo sapiens) (UniProt P16473)	inactive

q: GET /call?item= CC1CC(=O)N(c2ccc(C(C)C)cc2)C(=O)C1 returns the recorded outcome of this test.
a: inactive

q: Lab log entry: CCOC(=O)c1[nH]c2cc(OC)c(OC)cc2c1NC(=O)c1ccc2c(c1)OCO2 — outcome as called in the assay?
a: inactive

q: Hi team, can someone confirm the assay call for COc1ccc(CCNC(=O)c2cccc3c2C(=O)N(C2CCCCC2)C3)cc1OC ?
a: inactive

###

Molecular target: Thyrotropin receptor (Homo sapiens) (UniProt P16473)
Experiment: qHTS for antagonists of the Thyroid Stimulation Hormone Receptor: Hit Validation in Primary Screen; note: nearly all actives have a fitted effect of over 80% in size; note: potency is the fitted concentration of half-maximal effect
Settings: TSHR-expressing cells, cAMP antagonist mode; series mostly up to 58 µM
About 380 (29%) of roughly 1,300 compounds were called active. About 37% were inconclusive and are not listed. This is one part of the list.
quantity_measured: Potency

smiles_record	Potency
CN(C)C(=O)[C@H]1C[C@H]1[C@@H](O)[C@H](CO)NC(=O)[C@H](COCc1ccccc1)NC(=O)OC(C)(C)C	inactive
COCCNc1oc(Cc2cccc3ccccc23)nc1C#N	inactive
COCCNC(=O)CN1C(=O)c2cccc3cccc1c23	inactive
Nc1c(C(=O)NCc2ccc3c(c2)OCO3)nnn1CC(=O)Nc1ccc(Br)cc1	inactive
Cc1sc(N/N=C/c2cccnc2)nc1-c1ccccc1	23.9 µM (active)

q: Recorded Potency of C(=N\N1CCN(Cc2cccc3ccccc23)CC1)/c1cccnc1 , please.
a: inactive

###

Biological target: Thyrotropin receptor (Homo sapiens)
Experiment: qHTS for antagonists of the Thyroid Stimulation Hormone Receptor: Hit Validation in Primary Screen; note: nearly all actives have a fitted effect of over 80% in size; note: potency is the fitted concentration of half-maximal effect
Settings: TSHR-expressing cells, cAMP antagonist mode; series mostly up to 58 µM
Among all 1,300 compounds or so, about 380 (29%) were called active. Inconclusive results (about 37%) are left out. The list shows a part of the results.
quantity_measured: Potency

Worked cases, answers included:
compound	endpoint_result
CC(=O)N/N=C\c1ccccc1OC/C=C/c1ccccc1	inactive
O=C1c2cccnc2C(=O)N1Cc1ccc(S(=O)(=O)N2CCN(c3ccc(Cl)cc3)CC2)cc1	inactive
O=[N+]([O-])c1ccc(NC(=S)NCc2ccc(F)cc2)cc1	9.53 µM (active)
O=S(=O)(Nc1cccnc1)c1ccc(Br)c2ccccc12	26.9 µM (active)

Now look at this one.
q: Find the recorded Potency belonging to CC(=O)c1ccc(S(=O)(=O)N2CCN(CCOc3ccc(Br)cc3)CC2)cc1 and report it.
a: 30.1 µM (active)

###

Target: Thyrotropin receptor (Homo sapiens) (UniProt P16473)
Experiment: qHTS for antagonists of the Thyroid Stimulation Hormone Receptor: Hit Validation in Primary Screen; note: nearly all actives have a fitted effect of over 80% in size
Conditions: TSHR-expressing cells, cAMP antagonist mode; series mostly up to 58 µM
Screen size: about 1,300 compounds; about 380 (29%) were called active. Roughly 37% stayed inconclusive and do not appear here. The call rests on the fitted dose curve; in most records, active means well fitted inhibition curve with a large enough effect; inconclusive means small, poorly fitted or top-dose-only effect; inactive means flat fitted curve, though single readings scatter. This is one part of the list.
Hi! Could you answer with just one of these? active, inactive

Example entries and their recorded answers appear below.
compound	discrete_label
CC1CCN(Cc2c(C(=O)N/N=C/c3cc(Cl)ccc3O)nnn2-c2nonc2N)CC1	inactive
Cc1cccc(NC(=O)C2CCN(S(=O)(=O)c3ccc4c(c3)NC(=O)CO4)CC2)c1	inactive
CC(Sc1nn(-c2ccc(F)cc2)c(=S)s1)C(=O)c1c(N)n(C)c(=O)n(C)c1=O (stereo unspecified)	active
CC(C)(C)OC(=O)NCCCCCc1cn([C@@H](CO)C(=O)NCCCCCCCCCCC(=O)N2CCN(C(=O)OC(C)(C)C)CC2)nn1	active
C=CC(C)(C)c1c2occc2c(O)c2ccc(=O)oc12	active

q: // param item: CCOc1ccccc1/C=C/c1onc(C)c1S(=O)(=O)N1CCC(C(=O)N2CCCCCC2)CC1 ; yields the recorded call
a: inactive

q: Please let me know the test result on file for Cc1ccccc1C(=O)Nc1nnc(SCC(=O)NC2CC2)s1 .
a: inactive

q: Please indicate how the test categorized CCc1cc2c(NCc3ccccc3)nc(C)nc2s1 .
a: active

q: Each compound tested received a call. Report the one for C#C[C@]1(OC(C)=O)CCC2C3CCC4=CC(=O)CC[C@@H]4C3CC[C@@]21C (stereo partly specified) .
a: active

###

Target: Thyrotropin receptor (Homo sapiens)
Assay: qHTS for antagonists of the Thyroid Stimulation Hormone Receptor: Hit Validation in Primary Screen; note: nearly all actives have a fitted effect of over 80% in size; note: potency is the fitted concentration of half-maximal effect
Settings: TSHR-expressing cells, cAMP antagonist mode; series mostly up to 58 µM
About 380 (29%) of roughly 1,300 compounds were called active. Another 37% or so got no clear call; they are omitted. The list shows a part of the results.
quantity_measured: Potency

molecule	quantity_measured	endpoint_result
COc1ccc(N2CCN(C(=O)[C@H](C)NC(=O)c3ccccc3Cl)CC2)cc1	Potency	inactive
O=C(CSc1ncnc2ccccc12)c1ccc2c(c1)OCCO2	Potency	26.9 µM (active)
Cc1ccc(NS(=O)(=O)c2cc(C(=O)Nc3cccc([N+](=O)[O-])c3)ccc2C)cc1	Potency	21.3 µM (active)
COc1ccc(NC(=O)/C(Cl)=C(/Cl)S(=O)Cc2ccc(Cl)cc2)cn1 (stereo unspecified)	Potency	30.1 µM (active)
CC(C)Cc1ccc(C(C)C(=O)Nc2nccs2)cc1 (stereo unspecified)	Potency	inactive
CCOc1ccccc1NC(=O)C(NCCc1ccc(OC)cc1)c1ccccc1 (stereo unspecified)	Potency	inactive
Cc1ccc(S(=O)(=O)NCCNc2ccc([N+](=O)[O-])cc2)cc1	Potency	inactive
CC(Oc1ccc(Cl)cc1Cl)c1nc(-c2ccc(NC(=O)c3cccnc3)cc2)no1 (stereo unspecified)	Potency	21.3 µM (active)

q: Under Thyrotropin receptor (Homo sapiens): Potency value of COc1ccc(-c2csc(NC(=O)c3ccccc3NS(=O)(=O)c3ccc(F)c(F)c3)n2)cc1 ?
a: 5.36 µM (active)

q: State its Potency on Thyrotropin receptor (Homo sapiens): CC1=C/C(=N\OS(=O)(=O)c2ccccc2)C(C)=CC1=O
a: 4.78 µM (active)

q: Recall the recorded Potency for Cc1c(Cl)sn(-c2ccc(Cl)cc2)c1=O with Thyrotropin receptor (Homo sapiens) and state it.
a: 26.9 µM (active)

###

Biological target: Thyrotropin receptor (Homo sapiens) (UniProt P16473)
Experiment: qHTS for antagonists of the Thyroid Stimulation Hormone Receptor: Hit Validation in Primary Screen; note: nearly all actives have a fitted effect of over 80% in size; note: potency is the fitted concentration of half-maximal effect
Conditions: TSHR-expressing cells, cAMP antagonist mode; series mostly up to 58 µM
The whole screen tested about 1,300 compounds, of which about 380 (29%) were called active. Another 37% or so got no clear call; they are omitted. The list shows a part of the results.
quantity_measured: Potency

compound	experimental_system	Potency
CC(C)C1Nc2ccc(C(=O)N3CCN(c4ccccn4)CC3)cc2NC1=O (stereo unspecified)	Thyrotropin receptor (Homo sapiens) (UniProt P16473)	inactive
CCN(CCCNC(=O)Cn1ncc2c([nH]c3ccc(C)cc32)c1=O)c1cccc(C)c1	Thyrotropin receptor (Homo sapiens) (UniProt P16473)	inactive
O=[N+]([O-])c1cc(Br)c(O)c(/C=N/Nc2nc3ccccc3s2)c1	Thyrotropin receptor (Homo sapiens) (UniProt P16473)	2.39 µM (active)
COc1ccc(CCNC(=O)c2ccc(Cl)c(S(=O)(=O)N3CCCCCC3)c2)cc1	Thyrotropin receptor (Homo sapiens) (UniProt P16473)	16.9 µM (active)
COC(=O)CSc1nc(NCc2ccccc2)nc(N(C)C)n1	Thyrotropin receptor (Homo sapiens) (UniProt P16473)	inactive

q: Could you tell me which Potency is on file for COc1cccc(N2CCN(c3ncnc4c3cnn4-c3ccc(C)cc3C)CC2)c1 ?
a: 10.7 µM (active)

q: Sample CCOC(=O)c1cccc(OCC(O)CNCCOc2ccccc2F)c1 (stereo unspecified) — what was its Potency?
a: inactive

q: Would you kindly share the measured Potency for CCC1CCCCN1S(=O)(=O)c1ccc(NC(=O)c2nc(S(C)(=O)=O)ncc2Cl)cc1 (stereo unspecified) ?
a: 9.53 µM (active)

q: Can you share its Potency? I mean this compound: Brc1ccc(CNc2ccc3ncccc3c2)cc1
a: 23.9 µM (active)

###

Target: Thyrotropin receptor (Homo sapiens) (UniProt P16473)
Experiment: qHTS for antagonists of the Thyroid Stimulation Hormone Receptor: Hit Validation in Primary Screen; note: nearly all actives have a fitted effect of over 80% in size
Conditions: TSHR-expressing cells, cAMP antagonist mode; series mostly up to 58 µM
In all, about 1,300 compounds went through this assay and about 380 (29%) were called active. Not shown: some 37% with an inconclusive outcome. Calls come from the whole dose curve; as a rule, active = well fitted inhibition curve with a large enough effect; inconclusive = small, poorly fitted or top-dose-only effect; inactive = flat fitted curve, though single readings scatter. The list shows a part of the results.
The categories you may choose from are active, inactive

q: Test call for this compound, please: COc1ccc(CN2CCCN(C)CC2)c(OC)c1C
a: inactive

q: Look up the recorded call for Cc1ncsc1CCOC(=O)C1C2CC3CC(C2)CC1C3 (stereo not given) in this test.
a: active

q: Record request — test call for CCCCCCSc1ccc(-c2nc3ccc(Cl)cn3c2NCCCC)cc1OC
a: inactive
